These entries and their values trace back to patent US10273224B2.

Biological target: EGFR (L858R & T790M) (Homo sapiens, UniProt P00533, L858R/T790M)
Construct: GST
Sequence (P00533 25-1210 T790M/L858R): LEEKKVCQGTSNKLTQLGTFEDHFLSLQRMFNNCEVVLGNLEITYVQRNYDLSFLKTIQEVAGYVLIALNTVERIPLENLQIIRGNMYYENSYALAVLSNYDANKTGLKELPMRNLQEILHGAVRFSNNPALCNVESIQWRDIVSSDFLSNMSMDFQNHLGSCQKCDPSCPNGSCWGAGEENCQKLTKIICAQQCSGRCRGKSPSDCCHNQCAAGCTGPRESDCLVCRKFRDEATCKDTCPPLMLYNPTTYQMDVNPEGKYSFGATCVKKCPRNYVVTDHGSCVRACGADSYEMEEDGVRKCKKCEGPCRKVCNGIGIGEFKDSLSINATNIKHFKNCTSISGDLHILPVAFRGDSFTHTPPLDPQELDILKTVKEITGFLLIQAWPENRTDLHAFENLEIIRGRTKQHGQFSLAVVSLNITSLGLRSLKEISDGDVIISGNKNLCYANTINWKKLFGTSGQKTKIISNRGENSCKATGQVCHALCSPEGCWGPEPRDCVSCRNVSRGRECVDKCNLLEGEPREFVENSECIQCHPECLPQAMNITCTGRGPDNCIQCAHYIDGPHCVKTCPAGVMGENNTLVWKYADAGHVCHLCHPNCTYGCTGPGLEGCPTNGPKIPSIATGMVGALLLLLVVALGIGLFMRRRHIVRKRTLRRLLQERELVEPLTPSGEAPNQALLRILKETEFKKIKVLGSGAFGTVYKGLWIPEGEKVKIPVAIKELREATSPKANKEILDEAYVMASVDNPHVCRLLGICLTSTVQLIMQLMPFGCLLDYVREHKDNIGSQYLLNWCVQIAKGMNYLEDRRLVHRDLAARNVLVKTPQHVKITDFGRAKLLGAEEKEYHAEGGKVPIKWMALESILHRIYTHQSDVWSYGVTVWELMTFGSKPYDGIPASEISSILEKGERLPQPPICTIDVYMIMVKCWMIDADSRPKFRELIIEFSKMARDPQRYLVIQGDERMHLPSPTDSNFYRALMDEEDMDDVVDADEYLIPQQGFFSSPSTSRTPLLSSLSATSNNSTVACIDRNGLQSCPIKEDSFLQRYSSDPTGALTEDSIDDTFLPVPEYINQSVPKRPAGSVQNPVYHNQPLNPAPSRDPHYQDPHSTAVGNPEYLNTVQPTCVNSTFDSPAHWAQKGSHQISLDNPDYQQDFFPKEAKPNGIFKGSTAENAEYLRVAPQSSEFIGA
Assay: EGFR (L858R & T790M) inhibition assay, HTRF method
Conditions: biochemical HTRF; EGFR (T790M/L858R) 2.5 nM, ATP 5 μM, 60 min room temperature
Experimental: Example 25: Biological Activity: EGFR T790M Assay Protocol The objective of the experiment is to find the IC50 for the compounds using HTRF method. Reagents for Enzyme Assay: 1. Enzyme Assay Buffer: 60 mM HEPES (pH 7.4), 50 mM NaCl, 20 mM MgCl2, 5 mM MnCl2, filter using 0.2 µm pore size, store at 4° C. Supplements (add fresh to the enzyme buffer): Make 1M DTT stock, 5% BSA stock and 0.1M Na3OV4 stored at 4° C. […] • 1. […] Take the reading in Pherastar (ext 337 nm, em 665 & 620 nm). • 9. […]
pIC50: −log10 of the molar value.
Reported pIC50 values are given for each entry in this list.
MEASUREMENT_NAME: pIC50

> print(dat)
                                   compound  measurement.name   test.result
1  C=CC(=O)Nc1cccc(Nc2nc(Nc3cnn(CCO)c3)ncc2Cl)c1             pIC50        > 8.00
2  C=CC(=O)Nc1cccc(Nc2nc(Nc3c(C)nn(C4CCN(C)CC4)c3C)ncc2Cl)c1             pIC50        < 7.00
3  CN1CCC(n2cc(Nc3ncc(F)c(Nc4cccc(NC(=O)C=C5CCCCC5)c4)n3)cn2)CC1             pIC50        < 7.00
4  C=CC(=O)N1CCCC(CNc2nc(Nc3cnn(C)c3)ncc2Cl)C1 (stereo not drawn)             pIC50        < 7.00
5  C=CC(=O)Nc1cccc(Nc2nc(Nc3cnn(C)c3)ncc2C)c1             pIC50  7.00 to 8.00
6  C=CC(=O)Nc1cccc(Nc2nc(Nc3cn(C)nc3C)ncc2Cl)c1             pIC50        > 8.00
